System: Micrococcus luteus
test_summary: Antimicrobial activity against Micrococcus luteus Presque Isle 456 assessed clear zone in inhibition per disk by CLSI disk diffusion susceptibility assay
Format: functional
endpoint_name: MIC (µg)
Record the value in µg, omitting the unit from your answer.

Examples with answers:
COc1cc(/C=C/[N+](=O)[O-])ccc1O : 50
O=[N+]([O-])/C=C/c1ccc2c(c1)OCO2 : 50
COc1cc(/C=C/[N+](=O)[O-])c(OC)c(OC)c1OC : 1.56
COc1cc(/C=C/[N+](=O)[O-])cc(O[Si](C)(C)C(C)(C)C)c1OC : 1.56
O=[N+]([O-])/C=C/c1ccccc1O : 25

-- ask Can you look up the measured MIC of COc1ccc(/C=C/[N+](=O)[O-])cc1OC for me?
-- reply 50

---

Tested on: DU-145
test_summary: Cytotoxicity against human DU145 cells after 48 hrs by sulforhodamine B assay
Type: functional
Calls of active or inactive are those of the source. No cut-off for these calls is given here.
endpoint_name: GI50

# count of solved cases: 4
COc1cc(/C=C/[N+](=O)[O-])c(OC)c(OC)c1OC : inactive
CC(=O)Nc1ccc(/C=C/[N+](=O)[O-])cc1 : inactive
COc1cc(/C=C/[N+](=O)[O-])cc2c1OCO2 : inactive
COc1ccc(/C=C/[N+](=O)[O-])cc1O : inactive

-- ask What does the record list as GI50 for COc1cc(OC)c(/C=C/[N+](=O)[O-])c(OC)c1 ?
-- reply inactive

---

Tested on: Neisseria gonorrhoeae
test_summary: Antimicrobial activity against Neisseria gonorrhoeae ATCC 49226 after 24 hrs by broth microdilution susceptibility assay
Format: functional
measurement_conditions: ATCC 49226, 24 h
endpoint_name: MBC (µg/mL)
Give the number; µg/mL is assumed, so skip it.

# example entries with known answers
O=[N+]([O-])/C=C/c1ccc2c(c1)OCO2 : 2
COc1cc(/C=C/[N+](=O)[O-])ccc1OCc1ccccc1 : 2
COc1cc(/C=C/[N+](=O)[O-])cc(OC)c1OC : 8
COc1cc(/C=C/[N+](=O)[O-])cc(OC)c1O : 4

-- ask Which value of MBC has been reported for COc1ccc(/C=C/[N+](=O)[O-])cc1OC in the records?
-- reply 4

-- ask Would you kindly share the measured MBC for O=[N+]([O-])/C=C/c1ccc(O)cc1 ?
-- reply 4

-- ask Given the molecule COc1ccc(/C=C/[N+](=O)[O-])cc1O , what is its reported MBC?
-- reply 4

---

Tested on: Micrococcus luteus
test_summary: Antimicrobial activity against Micrococcus luteus Presque Isle 456 assessed clear zone in inhibition per disk by CLSI disk diffusion susceptibility assay
Assay type: functional
molecules and their reported MIC
// units = µg; emit number, no label

O=[N+]([O-])/C=C/c1c[nH]c2ccccc12 : 50
COc1cc(/C=C/[N+](=O)[O-])cc(OC)c1 : 25
O=[N+]([O-])/C=C/c1ccc(OP(=O)(OCc2ccccc2)OCc2ccccc2)cc1 : 6.25
CCOc1ccc(/C=C/[N+](=O)[O-])cc1 : 50

-- ask Requested read-out: MIC. Entry: COc1ccc(/C=C/[N+](=O)[O-])cc1
-- reply 50

-- ask # lookup: MIC of COc1ccc(/C=C/[N+](=O)[O-])cc1OP(=O)(OCc1ccccc1)OCc1ccccc1
-- reply 3.12

-- ask Consider the molecule shown here: COc1cc(/C=C/[N+](=O)[O-])cc(OC)c1OC What is its recorded MIC?
-- reply 25

---

Test system: Enterococcus faecalis
test_summary: Antimicrobial activity against Enterococcus faecalis ATCC 29212 assessed clear zone in inhibition per disk by CLSI disk diffusion susceptibility assay
Assay type: functional
endpoint_name: MIC (µg)
Please state the figure in µg; there is no need to write the unit.

COc1ccccc1/C=C/[N+](=O)[O-] : 0.78
COc1cc(/C=C/[N+](=O)[O-])cc(OC)c1OC : 50
COc1cc(/C=C/[N+](=O)[O-])ccc1O : 25
O=[N+]([O-])/C=C/c1ccccc1O : 50

-- ask Given the entry CCOc1ccc(/C=C/[N+](=O)[O-])cc1 , report its measured MIC.
-- reply 50

-- ask Consider the molecule COc1cc(/C=C/[N+](=O)[O-])c(OC)c(OC)c1OC and give its measured MIC.
-- reply 3.12

-- ask Endpoint output: MIC of O=[N+]([O-])/C=C/c1ccc(O)cc1 . Value?
-- reply 6.25

-- ask Request the reported MIC associated with COc1cc(/C=C/[N+](=O)[O-])cc(O[Si](C)(C)C(C)(C)C)c1OC
-- reply 3.12

-- ask Fill in the blank: the reported MIC of O=[N+]([O-])/C=C/c1ccc2c(c1)OCO2 is ____.
-- reply 6.25

-- ask Any idea what its MIC is? The molecule is COc1ccc(/C=C/[N+](=O)[O-])cc1OC
-- reply 25

-- ask Field request: MIC | item: COc1ccc(/C=C/[N+](=O)[O-])cc1OP(=O)(OCc1ccccc1)OCc1ccccc1
-- reply 6.25

---

Tested on: KM-20L2
test_summary: Cytotoxicity against human KM20L2 cells after 48 hrs by sulforhodamine B assay
Type: functional
measurement_conditions: KM-20L2, 48 h
endpoint_name: GI50

Look over these answered cases.
COc1ccc(/C=C\c2cc(OC)c(OC)c(OC)c2)cc1O : 0.34 mg/L
COc1ccc(/C=C/[N+](=O)[O-])cc1 : 1.5 mg/L
COc1ccc(/C=C/[N+](=O)[O-])cc1OC : 1.3 mg/L

-- ask Lab note: need GI50 for O=[N+]([O-])/C=C/c1ccc(OP(=O)(OCc2ccccc2)OCc2ccccc2)cc1 on KM-20L2, anyone have it?
-- reply > 10 mg/L

-- ask Form field: GI50 recorded for COc1cc(/C=C/[N+](=O)[O-])cc(OC)c1 with KM-20L2 (enter value)
-- reply 1.5 mg/L

-- ask What value of GI50 on KM-20L2 does COc1ccccc1/C=C/[N+](=O)[O-] have?
-- reply 1.5 mg/L

-- ask Checklist item: GI50 tested on KM-20L2, entry COc1ccc(/C=C/[N+](=O)[O-])cc1OP(=O)(OCc1ccccc1)OCc1ccccc1 , value?
-- reply > 10 mg/L

-- ask Lab request: please report GI50 under test system KM-20L2 for O=[N+]([O-])/C=C/c1ccccc1O
-- reply 1.6 mg/L

-- ask Hello, I am looking for reported GI50 with KM-20L2 for O=[N+]([O-])/C=C/c1ccc(OP(=O)([O-])[O-])cc1.[Na+].[Na+] . Could you help?
-- reply > 10 mg/L

-- ask API: value(readout=GI50, system=KM-20L2) for record O=[N+]([O-])/C=C/c1ccc(O)cc1
-- reply 1.5 mg/L

-- ask Query GI50 on KM-20L2 for COc1cc(/C=C/[N+](=O)[O-])cc(OC)c1OC
-- reply 1.3 mg/L

---

Tested on: P388
test_summary: Cytotoxicity against mouse P388 cells after 48 hrs by sulforhodamine B assay
Assay type: functional
measurement_conditions: P388, 48 h, read-out: ED50 (the source's name)
endpoint_name: EC50 (µg/mL)
Answer with a number only, understood to be in µg/mL.

-- ask Param item = COc1cc(/C=C/[N+](=O)[O-])cc(OC)c1O ; retrieve measured EC50.
-- reply 2.2

-- ask Find the recorded EC50 belonging to O=[N+]([O-])/C=C/c1ccc(OP(=O)(OCc2ccccc2)OCc2ccccc2)cc1 and report it.
-- reply 7

-- ask Which value of EC50 has been reported for CC(=O)Nc1ccc(/C=C/[N+](=O)[O-])cc1 in the records?
-- reply 6.2

---

Test system: KM-20L2
test_summary: Cytotoxicity against human KM20L2 cells after 48 hrs by sulforhodamine B assay
Type: functional
measurement_conditions: KM-20L2, 48 h
endpoint_name: GI50 (µg/mL)
Note: unit µg/mL is implicit; provide only the numeric part.

-- ask Requested field: GI50. Item: COc1cc(OC)c(/C=C/[N+](=O)[O-])c(OC)c1
-- reply 0.38

-- ask What does the data say about its GI50? Entry: O=[N+]([O-])/C=C/c1ccc2c(c1)OCO2
-- reply 1.8

-- ask For Oc1ccc(/C=C\c2cc(O)cc(O)c2)cc1 [CIS-RESVERATROL] , what is its reported GI50?
-- reply 22

---

Tested on: Enterobacter cloacae
test_summary: Antimicrobial activity against Enterobacter cloacae ATCC 13047 assessed clear zone in inhibition per disk by CLSI disk diffusion susceptibility assay
Assay type: functional
endpoint_name: MIC (µg)
Just the number please, in µg, no unit attached.

COc1ccccc1/C=C/[N+](=O)[O-] : 25

// switching to the query compound
-- ask Suppose we examine the compound COc1ccc(/C=C/[N+](=O)[O-])cc1O ; what MIC value has been reported?
-- reply 25

---

Tested on: Micrococcus luteus
test_summary: Antimicrobial activity against Micrococcus luteus Presque Isle 456 assessed clear zone in inhibition per disk by CLSI disk diffusion susceptibility assay
Format: functional
endpoint_name: MIC

# example entries with known answers
COc1ccccc1/C=C/[N+](=O)[O-] : >100 µg
O=[N+]([O-])/C=C/c1ccc(O)cc1 : >100 µg
COc1cc(/C=C/[N+](=O)[O-])cc(OC)c1O : >100 µg
CC(=O)Nc1ccc(/C=C/[N+](=O)[O-])cc1 : >100 µg

-- ask Notebook: pull reported MIC for Micrococcus luteus, entry COc1cc(OC)c(/C=C/[N+](=O)[O-])c(OC)c1
-- reply >100 µg

-- ask Request - read-out MIC | tested on Micrococcus luteus | molecule O=[N+]([O-])/C=C/c1ccc(OP(=O)([O-])[O-])cc1.[Na+].[Na+]
-- reply >100 µg
